Test system: Mus musculus
Protocol: Antitumor activity against P388 leukemia cells was determined in mice at a dose 6.25 mg/kg administered i.p. on days 1-5
Format: functional
Assay Setup: route intraperitoneal
Measured Quantity: T/C (%)
Could you give me the number in %? Just the number is fine.

These recorded examples may help you get a feel for the data.
**Q:** Look at this compound and give its reported T/C. "COc1ccc(C[C@H]2C(=O)N[C@@H](C)C(=O)N(C)[C@H]3Cc4ccc(cc4)Oc4cc(ccc4OC)C[C@@H](C(=O)N[C@H](C)C(=O)N(C/C=C(\C)CCC=C(C)C)[C@@H](C)C(=O)N2C)N(C)C3=O)cc1"
**A:** 148

**Q:** Look at this compound and give its reported T/C. "C/C=C/CN1C(=O)[C@@H](C)NC(=O)[C@@H]2Cc3ccc(OC)c(c3)Oc3ccc(cc3)C[C@@H](C(=O)N2C)N(C)C(=O)[C@H](C)NC(=O)[C@H](Cc2ccc(OC)cc2)N(C)C(=O)[C@@H]1C"
**A:** 155

**Q:** Look at this compound and give its reported T/C. "CC/C=C/CN1C(=O)[C@@H](C)NC(=O)[C@@H]2Cc3ccc(OC)c(c3)Oc3ccc(cc3)C[C@@H](C(=O)N2C)N(C)C(=O)[C@H](C)NC(=O)[C@H](Cc2ccc(OC)cc2)N(C)C(=O)[C@@H]1C"
**A:** 155

Now for a further compound.
**Q:** Look at this compound and give its reported T/C. "COc1ccc(C[C@H]2C(=O)N[C@@H](C)C(=O)N(C)[C@H]3Cc4ccc(cc4)Oc4cc(ccc4OC)C[C@@H](C(=O)N[C@H](C)C(=O)N(CC=C(C)C)[C@@H](C)C(=O)N2C)N(C)C3=O)cc1"
**A:** 160
